# SYSTEM: human ether-à-go-go-related gene (hERG) potassium channel (human);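 note: peak tail current of the secondary pulse compared with the same well before compound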
# Sequence (Q12809 whole entry, looked up): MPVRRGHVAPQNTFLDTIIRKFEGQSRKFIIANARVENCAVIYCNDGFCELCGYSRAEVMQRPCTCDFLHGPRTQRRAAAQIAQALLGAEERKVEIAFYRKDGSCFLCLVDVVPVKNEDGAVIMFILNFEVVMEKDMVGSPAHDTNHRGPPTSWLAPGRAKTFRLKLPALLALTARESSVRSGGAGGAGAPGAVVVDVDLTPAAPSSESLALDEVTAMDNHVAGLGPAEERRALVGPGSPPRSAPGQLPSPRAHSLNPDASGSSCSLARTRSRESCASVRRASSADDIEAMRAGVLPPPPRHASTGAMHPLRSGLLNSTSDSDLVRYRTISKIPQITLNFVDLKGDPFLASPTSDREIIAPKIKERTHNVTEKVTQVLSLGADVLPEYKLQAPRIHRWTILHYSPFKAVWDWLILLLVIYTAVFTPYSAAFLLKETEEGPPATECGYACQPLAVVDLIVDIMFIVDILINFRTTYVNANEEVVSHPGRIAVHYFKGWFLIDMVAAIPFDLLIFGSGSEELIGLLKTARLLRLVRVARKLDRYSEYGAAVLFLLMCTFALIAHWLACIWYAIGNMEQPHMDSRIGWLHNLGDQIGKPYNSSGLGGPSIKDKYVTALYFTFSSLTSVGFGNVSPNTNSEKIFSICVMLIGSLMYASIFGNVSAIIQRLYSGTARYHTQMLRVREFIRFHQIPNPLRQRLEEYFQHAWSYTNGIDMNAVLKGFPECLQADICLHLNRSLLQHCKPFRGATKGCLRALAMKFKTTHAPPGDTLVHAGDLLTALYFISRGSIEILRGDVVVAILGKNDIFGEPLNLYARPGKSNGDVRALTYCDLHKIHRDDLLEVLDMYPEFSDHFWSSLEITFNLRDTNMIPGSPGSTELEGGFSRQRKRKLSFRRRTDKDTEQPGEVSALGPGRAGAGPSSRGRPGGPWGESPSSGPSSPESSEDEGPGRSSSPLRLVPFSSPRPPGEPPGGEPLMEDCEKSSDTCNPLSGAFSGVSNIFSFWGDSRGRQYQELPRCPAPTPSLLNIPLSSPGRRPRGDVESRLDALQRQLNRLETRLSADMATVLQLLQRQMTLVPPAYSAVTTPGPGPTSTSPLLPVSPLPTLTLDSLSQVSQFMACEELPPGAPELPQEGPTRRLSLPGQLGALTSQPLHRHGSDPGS
# EXPERIMENT_SUMMARY: primary screen, population patch clamp on CHO cells stably expressing hERG; higher = less effect of the substance
# Protocol: Briefly, Chinese hamster ovary (CHO) cells stably expressing the hERG channel were dislodged from tissue culture flasks and dispensed into PPC plates. […] During the recording, background leak currents were estimated by a 100 ms step to -80 mV from an initial holding potential of -70 mV and subtracted from the subsequent current measurement. The campaign was conducted in two phases using slight differences in recording protocol. […]
Hit rate of the full screen: of about 310,000 compounds, about 14,000 (4.5%) showed an effect of 50% or more. The effect is printed as a negative number. For the sample, strong results were picked, then their nearest neighbours and some compounds at random.
Entries and their hERG current change (%, negative = inhibition) at 10uM values follow.
The response must be a number in % with no trailing unit.

For orientation, consider the following solved cases.
[[record]]
compound = "C=CCNC(=O)NC(=O)CN1C(=O)NC(c2ccccc2)(c2ccccc2)C1=O"
system = "human ether-à-go-go-related gene (hERG) potassium channel (human)"
reported_value = -69.5

[[record]]
compound = "Cc1ccc(-n2nc3c(c2NC(=O)CC(C)C)CS(=O)(=O)C3)c(C)c1"
system = "human ether-à-go-go-related gene (hERG) potassium channel (human)"
reported_value = 25

[[record]]
compound = "Cc1ccc2nc(N3C(=O)C(O)=C(C(=O)c4ccco4)C3c3ccc(C)o3)sc2c1.O=C(O)C(=O)O (centres unmarked)"
system = "human ether-à-go-go-related gene (hERG) potassium channel (human)"
reported_value = 1.65


input: Entry CCNC(=O)NC(=O)C(C)N1C(=O)NC(c2ccccc2)(c2ccccc2)C1=O (centres unmarked) needs its hERG current change (%, negative = inhibition) at 10uM filled in; supply it.
output: -43.6

input: Entry O=C(CN(C(=O)CCC(=O)Nc1ccccn1)c1ccc2c(c1)OCCO2)NCCc1ccccc1 needs its hERG current change (%, negative = inhibition) at 10uM filled in; supply it.
output: 2.29

input: Entry Cc1ccc(OCCn2cnc3c2c(=O)n(C)c(=O)n3C)cc1 needs its hERG current change (%, negative = inhibition) at 10uM filled in; supply it.
output: 20

input: Entry O=C(NC1CCCCC1)c1ccc2snnc2c1 needs its hERG current change (%, negative = inhibition) at 10uM filled in; supply it.
output: 12.8

input: Entry Fc1ccc(C2CC(c3ccccc3)Nc3ncnn32)cc1 (centres unmarked) needs its hERG current change (%, negative = inhibition) at 10uM filled in; supply it.
output: -45.9

input: Entry Cc1ccc(C2CC(c3ccccc3)n3ncnc3N2)cc1 (centres unmarked) needs its hERG current change (%, negative = inhibition) at 10uM filled in; supply it.
output: -1.18

input: Entry Clc1ccc(C2CC(c3ccccc3)Nc3ncnn32)cc1 (centres unmarked) needs its hERG current change (%, negative = inhibition) at 10uM filled in; supply it.
output: -64.4

input: Entry Cn1c(CSc2nc3ccccc3s2)nnc1SCC(=O)NCc1cccnc1 needs its hERG current change (%, negative = inhibition) at 10uM filled in; supply it.
output: -5.4

====

# SYSTEM: human ether-à-go-go-related gene (hERG) potassium channel (human);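 note: peak tail current of the secondary pulse compared with the same well before compound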
# EXPERIMENT_SUMMARY: primary screen, population patch clamp on CHO cells stably expressing hERG; higher = less effect of the substance
Among all 310,000 compounds or so, about 14,000 (4.5%) showed an effect of 50% or more. Effects have a minus sign here. Many of the other results were omitted from the sample, so strong results are more common in it than they were.
OBSERVED_PROPERTY: hERG current change (%, negative = inhibition) at 10uM (%)
The response must be a number in % with no trailing unit.

For orientation, consider the following solved cases.
[[record]]
molecule = "CCN1CCN(C(=O)c2cc(-c3cccnc3)nc3ccc(Br)cc23)CC1"
reported_value = -28.5

[[record]]
molecule = "Cn1cc([N+](=O)[O-])c(C(=O)Nc2ccc3c(c2)OCCO3)n1"
reported_value = 5.3


Please find the next molecule below.
input: Entry COc1ccc(C(=O)OCC(=O)Nc2c(C)n(C)n(-c3ccccc3)c2=O)cc1OC needs its hERG current change (%, negative = inhibition) at 10uM filled in; supply it.
output: 16.5
